# test_name: recombinant UMI read abundance after kanamycin selection (control-corrected) (log10(CPM+1)); higher = more efficient recombination; extreme values may be limits of the assay; sequences stand for … in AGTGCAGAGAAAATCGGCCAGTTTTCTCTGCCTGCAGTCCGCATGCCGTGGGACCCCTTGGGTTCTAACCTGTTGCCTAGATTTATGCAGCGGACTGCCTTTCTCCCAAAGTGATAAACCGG…AGGTTGGTTTCACT; site = the 11-nt donor
measured_endpoint: recombinant UMI read abundance (log10)

Study these solved cases before continuing.
INPUT: Field request: recombinant UMI read abundance (log10) | item: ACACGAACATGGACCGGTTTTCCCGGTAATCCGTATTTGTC (site ACACGAACTGT)
OUTPUT: 1.41

INPUT: Field request: recombinant UMI read abundance (log10) | item: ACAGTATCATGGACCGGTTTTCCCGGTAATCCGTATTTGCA (site GAAGTATCTTG)
OUTPUT: 2.82

INPUT: Field request: recombinant UMI read abundance (log10) | item: TGAAAATCATGGACCGGTTTTCCCGGTAATCCGTATTTGTG (site TGAAAATCTCA)
OUTPUT: 1

INPUT: Field request: recombinant UMI read abundance (log10) | item: CTGCTATCATGGACCGGTTTTCCCGGTAATCCGTATTTGCT (site CTGCTAGCTAG)
OUTPUT: 0.0179

INPUT: Field request: recombinant UMI read abundance (log10) | item: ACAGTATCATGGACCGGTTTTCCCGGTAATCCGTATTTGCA (site ACCGTATCTTC)
OUTPUT: 0.00762

Next:
INPUT: Field request: recombinant UMI read abundance (log10) | item: GTGCATGCATGGACCGGTTTTCCCGGTAATCCGTATTTGAT (site GTGCATGCTAT)
OUTPUT: 2.34

INPUT: Field request: recombinant UMI read abundance (log10) | item: CAGGCGACATGGACCGGTTTTCCCGGTAATCCGTATTTGGG (site CAGACGACTCC)
OUTPUT: 0.0355

INPUT: Field request: recombinant UMI read abundance (log10) | item: AGCTCGGCATGGACCGGTTTTCCCGGTAATCCGTATTTGGG (site AGCTCTGCTCC)
OUTPUT: 0

INPUT: Field request: recombinant UMI read abundance (log10) | item: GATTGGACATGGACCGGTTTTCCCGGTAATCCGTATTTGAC (site GATTAGACTGT)
OUTPUT: 0

###

# test_name: recombinant barcode read abundance after kanamycin selection (control-corrected) (log10(CPM+1)); higher = more efficient recombination; sequences stand for … in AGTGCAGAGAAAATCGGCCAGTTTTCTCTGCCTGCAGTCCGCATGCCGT…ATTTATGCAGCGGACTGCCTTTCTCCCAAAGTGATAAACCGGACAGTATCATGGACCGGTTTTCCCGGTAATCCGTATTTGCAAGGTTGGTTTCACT; site = the 11-nt target
Recorded recombinant barcode read abundance (log10), one value per entry.

Study these solved cases before continuing.
INPUT: Field request: recombinant barcode read abundance (log10) | item: ATGTCCCTTTGGGTTCTAACCTGTTGCTCAA [ATGTCCCCTGA_LTGcore_TT_RTGcore_TT] (site ATGTCCCCTGA) (LTG core: TT, RTG core: TT)
OUTPUT: 0.0472

INPUT: Field request: recombinant barcode read abundance (log10) | item: AGGCGGGAATGGGTTCTAACCTGTTGCGGAG [AGGCGGGCTCC_LTGcore_AA_RTGcore_CT] (site AGGCGGGCTCC) (LTG core: AA, RTG core: CT)
OUTPUT: 0.668

INPUT: Field request: recombinant barcode read abundance (log10) | item: AAACATGTGTGGGTTCTAACCTGTTGCCTCA [AAACATGCTAG_LTGcore_TG_RTGcore_TG] (site AAACATGCTAG) (LTG core: TG, RTG core: TG)
OUTPUT: 0.015

INPUT: Field request: recombinant barcode read abundance (log10) | item: AGGCCTCATTGGGTTCTAACCTGTTGCCTAG [AGGCCTCCTAG_LTGcore_AT_RTGcore_CT] (site AGGCCTCCTAG) (LTG core: AT, RTG core: CT)
OUTPUT: 0.254

INPUT: Field request: recombinant barcode read abundance (log10) | item: AGGAGGTGTTGGGTTCTAACCTGTTGCCTAC [AGGAGGTCTAG_LTGcore_GT_RTGcore_GT] (site AGGAGGTCTAG) (LTG core: GT, RTG core: GT)
OUTPUT: 0.0506

Next:
INPUT: Field request: recombinant barcode read abundance (log10) | item: GGGCGGACCTGGGTTCTAACCTGTTGCGGGG [GGGCGGACTCC_LTGcore_CC_RTGcore_CC] (site GGGCGGACTCC) (LTG core: CC, RTG core: CC)
OUTPUT: 0.132

INPUT: Field request: recombinant barcode read abundance (log10) | item: GAGGCCTTATGGGTTCTAACCTGTTGCCATA [GAGGCCTCTTG_LTGcore_TA_RTGcore_TA] (site GAGGCCTCTTG) (LTG core: TA, RTG core: TA)
OUTPUT: 0.172

INPUT: Field request: recombinant barcode read abundance (log10) | item: AAACATGCTTGGGTTCTAACCTGTTGCCTTT [AAACATGCTAG_LTGcore_CT_RTGcore_AA] (site AAACATGCTAG) (LTG core: CT, RTG core: AA)
OUTPUT: 0.865

INPUT: Field request: recombinant barcode read abundance (log10) | item: TGATACCCTTGGGTTCTAACCTGTTGCGTCT [TGATACCCTAC_LTGcore_CT_RTGcore_AG] (site TGATACCCTAC) (LTG core: CT, RTG core: AG)
OUTPUT: 0.133

INPUT: Field request: recombinant barcode read abundance (log10) | item: AGGAGGTTGTGGGTTCTAACCTGTTGCCTAG [AGGAGGTCTAG_LTGcore_TG_RTGcore_CT] (site AGGAGGTCTAG) (LTG core: TG, RTG core: CT)
OUTPUT: 0.42

INPUT: Field request: recombinant barcode read abundance (log10) | item: TCTACCCCGTGGGTTCTAACCTGTTGCTGCG [TCTACCCCTCA_LTGcore_CG_RTGcore_CG] (site TCTACCCCTCA) (LTG core: CG, RTG core: CG)
OUTPUT: 0.0225

INPUT: Field request: recombinant barcode read abundance (log10) | item: GGGAGCCTATGGGTTCTAACCTGTTGCTGTA [GGGAGCCCTCA_LTGcore_TA_RTGcore_TA] (site GGGAGCCCTCA) (LTG core: TA, RTG core: TA)
OUTPUT: 0.157

INPUT: Field request: recombinant barcode read abundance (log10) | item: TCGCGACCTTGGGTTCTAACCTGTTGCCGGT [TCGCGACCTCG_LTGcore_CT_RTGcore_AC] (site TCGCGACCTCG) (LTG core: CT, RTG core: AC)
OUTPUT: 0.129

INPUT: Field request: recombinant barcode read abundance (log10) | item: TGTATTCGCTGGGTTCTAACCTGTTGCCTAG [TGTATTCCTAG_LTGcore_GC_RTGcore_CT] (site TGTATTCCTAG) (LTG core: GC, RTG core: CT)
OUTPUT: 0.0931
